Target: T1, CD96 extracellular region with His tag (CD96-His) (human, UniProt P40200 22-519)
T1 construct: also called CD96-ECD-His; Bio-CD96-His (biotin-labelled form)
T1 sequence: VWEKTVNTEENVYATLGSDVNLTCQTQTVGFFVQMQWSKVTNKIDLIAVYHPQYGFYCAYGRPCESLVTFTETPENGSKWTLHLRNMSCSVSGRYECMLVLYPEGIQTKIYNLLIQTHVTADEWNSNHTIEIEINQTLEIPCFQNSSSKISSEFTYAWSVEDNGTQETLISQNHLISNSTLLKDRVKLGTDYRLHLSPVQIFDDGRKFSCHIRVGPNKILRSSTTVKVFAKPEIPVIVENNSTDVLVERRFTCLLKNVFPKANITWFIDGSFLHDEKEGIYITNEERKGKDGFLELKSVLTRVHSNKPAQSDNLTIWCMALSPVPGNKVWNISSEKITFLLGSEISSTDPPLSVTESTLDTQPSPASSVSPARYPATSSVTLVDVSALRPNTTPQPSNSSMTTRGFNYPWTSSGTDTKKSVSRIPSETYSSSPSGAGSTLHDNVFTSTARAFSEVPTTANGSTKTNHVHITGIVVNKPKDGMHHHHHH
Test: blocking cell ELISA: antibody premixed with Bio-CD96-His (0.5 ug/mL), binding to fixed CD155-CHO cells
Experimental: CD155-CHO cells (constructed by Shanghai Hengrui) were seeded in 96-well culture plates at a density of 9×10⁴/100 μL/well and cultured overnight. […] The absorption value was read at 450 nm with a NOVOStar microplate reader, and the EC50 value of the effect of CD96 antibody on blocking the binding between the antigens and CD155-CHO cells was calculated (see FIG. 2 and Table 16).
Assay Readout: IC50 (nM)
Record the value in nM, omitting the unit from your answer.

The following binders have reported results that may help.
1. h1721-003 (antibody, V domains shown, Only variable regions are tied to this name; also called M721-003) VH: EVTLKESGPVLVKPTETLTLTCTVSGFSLSSYGVNWIRQPPGKALEWLGVIWGDGSTNYHSALISRLTISKDTSKSQVVLTLTNMDPVDTATYYCAKNYFYGSRYGYAMDSWGQGTTVTVSS VL: DIQMTQSPSSLSASVGDRVTITCRASENIYSSLAWYQQKPGKAPKLLIYNAKTLIEGVPSRFSGSGSGTDFTLTISSLQPEDFATYYCQHHYGTPYTFGGGTKVEIK :: 0.155
2. h1719-006 (antibody, V domains shown, also called M719-006) VH: EVTLKESGPVLVKPTETLTLTCTVSGFSLSSYGVSWVRQPPGKGLEWLGVIWGDGNTNYHSVLISRLTISKDTSKSQVVLTLTNMDPVDTATYYCAKNNYYGSRYGYPMDYWGQGTTVTVSS VL: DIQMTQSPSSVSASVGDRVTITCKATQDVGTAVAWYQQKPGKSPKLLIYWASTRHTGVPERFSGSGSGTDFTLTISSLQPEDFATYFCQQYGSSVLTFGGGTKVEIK :: 0.064
3. h1722-017 (antibody, V domains shown) VH: EVQLVQSGAEVKKPGSSVKVSCKASGGTFSDYWMHWVRQAPGQGLEWIGMLHPKSGTTSFNEKFKIRVTITADKSTSTAYMELSSLRSEDTAVYYCASDYSGPFAYWGQGTLVTVSS VL: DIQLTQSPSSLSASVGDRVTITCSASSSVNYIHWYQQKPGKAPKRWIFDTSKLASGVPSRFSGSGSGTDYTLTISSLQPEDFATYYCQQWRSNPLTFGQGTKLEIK :: 0.135
4. h1719-003 (antibody, V domains shown, also called M719-003) VH: EVTLKESGPVLVKPTETLTLTCTVSGFSLSSYGVSWVRQPPGKGLEWLGVIWGDGNTNYHSVLISRLTISKDTSKSQVVLTLTNMDPVDTATYYCAKNNYYGSRYGYPMDYWGQGTTVTVSS VL: DIQMTQSPSSVSASVGDRVTITCKATQDVGTAVAWYQQKPGKAPKLLIYWASTRHTGVPSRFSGSGSGTDFTLTISSLQPEDFATYYCQQYGSSVLTFGGGTKVEIK :: 0.096

Can you look up the measured IC50 of h1718-012 (antibody, V domains shown, Only variable regions are tied to this name) VH: EVQLVQSGAEVKKPGASVKVSCKASGYTITDYNMNWVRQAPGQRLEWIGVINPSYGITDYNQNFKDRVTITVDTSASTAYMELSSLRSEDTAVYYCAIQLRLPGYFDVWGQGTTVTVSS VL: DIQMTQSPSSLSASVGDRVTITCKASQDINQYLNWFQQKPGKAPKTLIYRANRLVDGVPSRFSGSGSGQDYTLTISSLQPEDFATYYCLKYDEFPYTFGGGTKVEIK for me? 0.133

Can you look up the measured IC50 of h1722-018 (antibody, V domains shown) VH: EVQLVQSGAEVKKPGSSVKVSCKASGGTFSDYWMHWVRQAPGQGLEWIGMLHPQSGTTSFNEKFKIRVTITADKSTSTAYMELSSLRSEDTAVYYCASDYSGPFAYWGQGTLVTVSS VL: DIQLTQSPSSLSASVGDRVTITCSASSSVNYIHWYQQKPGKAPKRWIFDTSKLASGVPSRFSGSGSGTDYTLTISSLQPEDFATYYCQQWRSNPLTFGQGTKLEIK for me? 0.134
